Just for reference, paper PMC10743139 is where these values come from.

Substrate: N[C@@H](CC(=O)O)C(=O)O
test-summary: purified protein
measurement-parameters: sodium L-aspartate 1-100 mM, pH 7.0, 37 °C, 5 min
readout-name: Km
I'd appreciate it if you wrote the number followed by its unit.

- CorGlu, ADC from Corynebacterium glutamicum (Corynebacterium glutamicum ATCC 13032) (protein) chain 1: MLRTILGSKIHRATVTQADLDYVG chain 2: SVTIDADLVHAAGLIEGEKVAIVDITNGARLETYVIVGDAGTGNICINGAAAHLINPGDLVIIMSYLQATDAEAKAYEPKIVHVDADNRIVALGNDLAEALPGSGLLTSRSI: 4.5 ± 0.1 mM
- LisMon, ADC from Listeria Monocytogenes (Listeria monocytogenes EGD-e) (protein) chain 1: MFRTMMNGKIHRATVTEANLNYVG chain 2: SITIDSAILEAVDMLPNEKVQIVNNNNGARIETYIIPGEPGSGVICLNGAAARHVQVGDVVIIMSYGMFTDEEAKTHEPKIVVLDEKNHIEMILPEEKAHTTL: 6.0 ± 0.2 mM
- BacThe, ADC from Bacteroides thetaiotaomicron (Bacteroides thetaiotaomicron VPI-5482) (protein) chain 1: MMIEVLKSKIHCARVTEANLNYMG chain 2: SITIDEDLLDAANMIPGEKVYIADNNNGERFETYIIKGERGSGKICLNGAAARKVQPDDIVIIMSYALMDFEEAKSFKPTVIFPDPATNSVVK: 8.9 ± 0.4 mM

What value of Km has been reported for the following protein? CjADC (CorJei), L-aspartate α-decarboxylase from Corynebacterium jeikeium (Corynebacterium jeikeium K411) (protein) chain 1: MLRTMLKSKIHRATVTQADLHYVG chain 2: SCTIDADLMEAADILEGEQIDIVDIDNGNRLTTYAITGDRGTGVIGINGAAARLISPGDLVIIIGYAQYSEEDLKNYASRVVFVDGNNKQVELGGDPAQVPDGSGLKNPRHPEA 3.6 ± 0.2 mM

What value of Km has been reported for the following protein? BsADC (BacSub), ADC from B. subtilis (Bacillus subtilis subsp. subtilis str. 168) (protein) chain 1: MYRTMMSGKLHRATVTEANLNYVG chain 2: SITIDEDLIDAVGMLPNEKVQIVNNNNGARLETYIIPGKRGSGVICLNGAAARLVQEGDKVIIISYKMMSDQEAASHEPKVAVLNDQNKIEQMLGNEPARTIL 4.2 ± 0.3 mM
